Each recorded value in this set is attributed to paper PMC3741113.

Tested on: Pectobacterium carotovorum ssp. carotovorum
Cond: LB-medium, about 10^5 CFU/ml, 27°C, 1–2d, OD590 nm; at least two independent replicates
Ends that are not written are not given here.
For each entry below, report its MIC value.

For orientation, consider the following solved cases.
LLIKFLKRFIKH-NH2 [SP7-D]: 40 µg/mL
RKKRLKLLKR LV-NH2 [SP1-D]: > 40 µg/mL
LRALAKALKHKL-NH2 [SP11]: >40 µg/mL
LRFLKKILKHLF-NH2 [SP10-D]: > 40 µg/mL
KRKLTLVFGVMAGVIGTKKR-NH2 [SP14]: >40 µg/mL
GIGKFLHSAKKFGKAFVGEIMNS [Magainin II, reference compound]: > 64 µg/mL
KRRLAAFRAFRGALKSVLKK-NH2 [SP16]: >40 µg/mL
KKKAARALKRAL-NH2 [SP4]: >40 µg/mL

List MIC for every entry below, keeping the order given.
1. RKRFARFAKRAV-NH2 [SP3]
2. KRKLIFLAAFLAALALFKKR-NH2 [SP15]
3. LLKALKKLLKKLL-NH2 [SP9]
4. KRRLIARILRLAARALVKKR-NH2 [SP13-D]
5. LKALRKALKHLA-NH2 [SP12]
6. RKRAARLLKRLV-NH2 [SP2]

1: >40 µg/mL; 2: >40 µg/mL; 3: >40 µg/mL; 4: > 40 µg/mL; 5: >40 µg/mL; 6: >40 µg/mL

====

System: Pseudomonas corrugata
Cond: Table 4, incubation period 2d; LB-medium, 27°C
Ends that are not written are not given here.
For each entry below, report its MIC value.

For orientation, consider the following solved cases.
KRKKLLKRLL-NH2 [SP1-15]: <0.1 µg/mL
RKKRLKVVKRLV-NH2 [SP1-4]: >10 µg/mL

List MIC for every entry below, keeping the order given.
1. KRRLALFRLFRLALKLVLKK-NH2 [SP13-11]
2. RKKKLKVVKRLV-NH2 [SP1-6]
3. RKKKFKFFKRFF-NH2 [SP1-13]

>10 µg/mL
>10 µg/mL
<0.1 µg/mL

====

Tested on: Pseudomonas corrugata
Cond: LB-medium, about 10^5 CFU/ml, 27°C, 1–2d, OD590 nm; at least two independent replicates
Ends that are not written are not given here.
For each entry below, report its MIC value.

For orientation, consider the following solved cases.
KRKLIFLAAFLAALALFKKR-NH2 [SP15]: >40 µg/mL
LLKALKKLLKKLL-NH2 [SP9]: >40 µg/mL
RKRFARFAKRAV-NH2 [SP3]: >40 µg/mL
LKALRKALKHLA-NH2 [SP12]: >40 µg/mL
KRKLTLVFGVMAGVIGTKKR-NH2 [SP14]: >40 µg/mL

Continue with the next substance.
// MIC lookup, key: KKKAARALKRAL-NH2 [SP4] >40 µg/mL

====

For each entry below, report its MIC value.
Test system: Pseudomonas syringae pv. syringae
Cond: LB-medium, about 10^5 CFU/ml, 27°C, 1–2d, OD590 nm; at least two independent replicates
Ends that are not written are not given here.

For orientation, consider the following solved cases.
KRKLIFLAAFLAALALFKKR-NH2 [SP15]: >40 µg/mL
KKKAARALKRAL-NH2 [SP4]: >40 µg/mL
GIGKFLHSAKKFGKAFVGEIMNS [Magainin II, reference compound]: > 64 µg/mL

List MIC for every entry below, keeping the order given.
1. LRALAKALKHKL-NH2 [SP11]
2. RKRFARFAKRAV-NH2 [SP3]
3. KRKLTLVFGVMAGVIGTKKR-NH2 [SP14]

[">40 µg/mL", ">40 µg/mL", ">40 µg/mL"]

====

For each entry below, report its MIC value.
Test system: Pseudomonas corrugata
Cond: Table 4, incubation period 2d; LB-medium, 27°C
Ends that are not written are not given here.
Give bare numbers, in mg/L.

For orientation, consider the following solved cases.
RKKKFKIFKRLF-NH2 [SP1-14]: 0.5
RKKKVKLLKRLV-NH2 [SP1-3]: 2.5
RKKRKKLLKRLL-NH2 [SP1-18]: 0.25

List MIC for every entry below, keeping the order given.
1. KRRKLIKILKLIIKLIRKKR-NH2 [SP13-6]
2. LRFLKKALKKLF-NH2 [SP10-2]

2.5
0.5
